biological target: ATM (h) (Homo sapiens)
Sequence (Q13315 whole entry): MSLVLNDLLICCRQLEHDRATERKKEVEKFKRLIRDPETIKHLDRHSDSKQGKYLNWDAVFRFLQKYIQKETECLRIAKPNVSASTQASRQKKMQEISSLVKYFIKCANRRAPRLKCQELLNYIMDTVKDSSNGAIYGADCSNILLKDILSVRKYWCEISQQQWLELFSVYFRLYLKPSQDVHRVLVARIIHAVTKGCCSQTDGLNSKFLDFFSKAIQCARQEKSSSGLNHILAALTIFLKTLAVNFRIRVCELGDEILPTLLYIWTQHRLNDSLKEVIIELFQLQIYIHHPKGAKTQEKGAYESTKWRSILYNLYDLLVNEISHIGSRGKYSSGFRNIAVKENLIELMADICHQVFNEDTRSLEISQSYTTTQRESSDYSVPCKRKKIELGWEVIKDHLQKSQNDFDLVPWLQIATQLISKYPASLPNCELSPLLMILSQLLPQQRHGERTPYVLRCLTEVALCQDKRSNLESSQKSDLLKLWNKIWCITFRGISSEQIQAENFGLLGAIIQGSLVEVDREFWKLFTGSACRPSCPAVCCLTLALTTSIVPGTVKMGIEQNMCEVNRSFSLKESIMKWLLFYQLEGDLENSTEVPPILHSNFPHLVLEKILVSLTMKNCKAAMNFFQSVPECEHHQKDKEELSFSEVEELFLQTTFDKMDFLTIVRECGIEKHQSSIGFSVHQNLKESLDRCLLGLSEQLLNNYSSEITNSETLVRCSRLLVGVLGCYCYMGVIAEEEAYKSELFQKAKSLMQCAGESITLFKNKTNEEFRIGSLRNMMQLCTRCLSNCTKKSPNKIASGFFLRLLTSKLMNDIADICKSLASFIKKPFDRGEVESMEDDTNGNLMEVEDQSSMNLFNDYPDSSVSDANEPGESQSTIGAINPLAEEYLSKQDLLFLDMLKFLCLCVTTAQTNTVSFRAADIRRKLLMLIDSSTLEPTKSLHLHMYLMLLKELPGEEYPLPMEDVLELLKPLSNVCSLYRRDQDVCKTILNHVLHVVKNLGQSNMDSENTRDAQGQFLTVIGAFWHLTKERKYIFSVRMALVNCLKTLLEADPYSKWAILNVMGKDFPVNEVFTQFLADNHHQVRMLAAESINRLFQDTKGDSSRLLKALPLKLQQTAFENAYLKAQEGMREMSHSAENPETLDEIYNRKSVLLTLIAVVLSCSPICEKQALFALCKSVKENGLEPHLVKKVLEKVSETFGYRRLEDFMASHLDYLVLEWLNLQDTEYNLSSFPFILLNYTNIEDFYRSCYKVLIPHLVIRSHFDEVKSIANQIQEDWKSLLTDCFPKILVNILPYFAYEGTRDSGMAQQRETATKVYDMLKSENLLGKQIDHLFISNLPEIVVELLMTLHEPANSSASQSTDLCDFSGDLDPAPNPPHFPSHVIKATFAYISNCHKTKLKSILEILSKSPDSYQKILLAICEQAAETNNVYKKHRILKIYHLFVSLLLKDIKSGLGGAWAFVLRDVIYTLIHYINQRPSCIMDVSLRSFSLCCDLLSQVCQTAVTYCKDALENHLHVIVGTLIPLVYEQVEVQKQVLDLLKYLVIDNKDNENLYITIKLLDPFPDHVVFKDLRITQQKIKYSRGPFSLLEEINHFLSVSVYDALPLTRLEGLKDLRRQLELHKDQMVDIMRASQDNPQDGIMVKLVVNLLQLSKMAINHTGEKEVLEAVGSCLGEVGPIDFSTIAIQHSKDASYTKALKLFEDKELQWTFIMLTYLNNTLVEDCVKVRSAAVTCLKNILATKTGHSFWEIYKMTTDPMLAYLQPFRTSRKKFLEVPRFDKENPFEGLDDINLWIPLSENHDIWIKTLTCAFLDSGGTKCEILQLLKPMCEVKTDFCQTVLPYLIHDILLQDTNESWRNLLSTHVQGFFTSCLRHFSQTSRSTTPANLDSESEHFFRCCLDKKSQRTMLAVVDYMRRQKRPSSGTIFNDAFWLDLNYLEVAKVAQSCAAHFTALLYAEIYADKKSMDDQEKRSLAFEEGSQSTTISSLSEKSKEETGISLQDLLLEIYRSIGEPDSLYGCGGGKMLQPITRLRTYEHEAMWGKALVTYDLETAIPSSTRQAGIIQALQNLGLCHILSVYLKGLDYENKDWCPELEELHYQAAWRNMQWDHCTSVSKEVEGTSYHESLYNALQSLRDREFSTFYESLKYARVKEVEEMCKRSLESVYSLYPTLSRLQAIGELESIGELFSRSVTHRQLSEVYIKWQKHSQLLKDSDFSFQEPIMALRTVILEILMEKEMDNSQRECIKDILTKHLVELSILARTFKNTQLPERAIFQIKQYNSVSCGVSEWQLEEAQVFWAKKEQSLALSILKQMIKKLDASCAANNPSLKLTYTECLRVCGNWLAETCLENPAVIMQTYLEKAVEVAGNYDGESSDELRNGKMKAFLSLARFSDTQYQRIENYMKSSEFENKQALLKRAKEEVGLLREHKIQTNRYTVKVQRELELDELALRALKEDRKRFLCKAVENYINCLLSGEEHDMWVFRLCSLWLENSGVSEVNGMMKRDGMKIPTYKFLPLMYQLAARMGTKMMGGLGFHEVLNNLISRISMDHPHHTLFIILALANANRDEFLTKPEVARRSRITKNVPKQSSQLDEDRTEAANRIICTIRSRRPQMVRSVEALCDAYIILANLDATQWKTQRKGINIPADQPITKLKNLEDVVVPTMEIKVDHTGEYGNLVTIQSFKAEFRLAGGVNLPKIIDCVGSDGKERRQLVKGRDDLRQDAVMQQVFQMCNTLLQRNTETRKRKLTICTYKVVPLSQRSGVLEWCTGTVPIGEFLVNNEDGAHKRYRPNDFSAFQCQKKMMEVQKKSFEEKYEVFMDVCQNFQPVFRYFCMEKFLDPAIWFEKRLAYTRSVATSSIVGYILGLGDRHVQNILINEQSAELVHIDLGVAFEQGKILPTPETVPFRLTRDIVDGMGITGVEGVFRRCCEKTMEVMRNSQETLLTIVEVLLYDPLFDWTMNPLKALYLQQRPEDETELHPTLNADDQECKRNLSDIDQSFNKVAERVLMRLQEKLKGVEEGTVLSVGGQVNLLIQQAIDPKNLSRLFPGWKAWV
measuredQuantity: pIC50
# log scale: pIC50 equals minus log10 of the concentration in mol/L

Returns the measured pIC50 for the input molecule. Input: "N#Cc1ccc2ncc(NC(=O)Nc3cccnc3)cc2c1"
5.40
